target: mu opioid receptor (Rattus norvegicus, UniProt P33535); construct: Following incubation with the mu selective peptide ligand, ˜0.8 nM [^3H]DAMGO; from tissue; host or cells: forebrain of male Wistar rats (Charles River); assay: Rat Brain Mu Opioid Receptor Binding Assay; conditions: rat forebrain membranes; [3H]DAMGO; read-out: mu (Ki)
Sequence (P33535 whole entry): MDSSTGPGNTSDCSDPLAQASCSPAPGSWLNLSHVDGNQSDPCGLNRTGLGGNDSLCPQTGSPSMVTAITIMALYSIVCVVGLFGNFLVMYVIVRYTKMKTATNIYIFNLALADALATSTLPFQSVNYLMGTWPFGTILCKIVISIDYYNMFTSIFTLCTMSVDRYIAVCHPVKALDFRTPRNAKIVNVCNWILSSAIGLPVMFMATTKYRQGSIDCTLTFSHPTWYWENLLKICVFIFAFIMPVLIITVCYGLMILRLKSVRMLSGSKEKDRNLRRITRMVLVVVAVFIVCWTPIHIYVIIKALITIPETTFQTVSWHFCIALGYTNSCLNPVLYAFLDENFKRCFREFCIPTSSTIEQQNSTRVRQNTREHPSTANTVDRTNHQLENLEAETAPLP
pKi: −log10 of the molar value.
Binary classification by pKi, with 6 as an inclusive lower bound for MET; all other cases are NOT MET.

For orientation, consider the following solved cases.
> print(dat)
                                   molecule  assigned.class
1  C=CCN1C2CCC1CC(C1c3ccccc3Oc3cc(-c4ccccc4NC(C)=O)ccc31)C2 (stereo not drawn) [Compound 18b]         NOT MET
2  COc1cccc2c1Oc1cc(-c3cccnc3)ccc1C2C1CC2CCC(C1)N2 (stereo not drawn)         NOT MET
3  CCN(CC)C(=O)c1ccc2c(c1)Oc1c(-c3ccccc3)cccc1C2C1CC2CCC(C1)N2 (stereo not drawn)         NOT MET
4  CC(=O)Nc1ccccc1-c1ccc2c(c1)Oc1ccccc1C2C1CC2CCC(C1)N2CCc1ccccc1 (stereo not drawn) [Compound 17b]             MET

Please find the next molecule below.
Tell me whether pKi is at least 6 here: COc1cccc2c1Oc1cc(-c3ccccc3NC(C)=O)ccc1C2C1CC2CCC(C1)N2 (stereo not drawn)
NOT MET

###

molecular target: delta opioid receptor (Rattus norvegicus, UniProt P33533); construct: from tissue; host or cells: forebrain of male Wistar rats (Charles River); assay: Rat Brain Delta Opioid Receptor Binding Assay
Sequence (P33533 whole entry): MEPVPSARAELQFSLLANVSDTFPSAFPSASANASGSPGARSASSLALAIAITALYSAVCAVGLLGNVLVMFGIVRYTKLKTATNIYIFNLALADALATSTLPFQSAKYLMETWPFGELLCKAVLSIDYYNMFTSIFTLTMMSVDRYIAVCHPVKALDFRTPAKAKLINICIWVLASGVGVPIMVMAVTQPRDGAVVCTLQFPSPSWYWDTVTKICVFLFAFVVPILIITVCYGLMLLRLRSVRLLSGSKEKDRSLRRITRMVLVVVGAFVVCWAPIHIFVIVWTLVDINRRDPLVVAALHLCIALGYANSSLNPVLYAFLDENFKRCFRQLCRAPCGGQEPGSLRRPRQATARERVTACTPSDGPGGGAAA
Please respond with class 1 when measured Ki is strictly beneath 90 nM, and with class 0 in all other cases.

For orientation, consider the following solved cases.
> print(dat)
                                   compound  assigned.class
1  c1ccc(CCN2C3CCC2CC(C2c4ccccc4Oc4cc(-c5cccnc5)ccc42)C3)cc1 (centres unmarked) [Compound 12b]         class 0
2  CCN(CC)C(=N)c1ccc2c(c1)Oc1ccccc1C2C1CC2CCC(C1)N2Cc1ccccn1 (centres unmarked)         class 1
3  CCN(CC)C(=O)c1ccc2c(c1)Oc1ccccc1C2C1CC2CCC(C1)N2Cc1cccs1 (centres unmarked) [Compound 14a]         class 1
4  CC(=O)Nc1ccccc1-c1ccc2c(c1)Oc1c(O)cccc1C2C1CC2CCC(C1)N2 (centres unmarked)         class 1
5  c1ccc(CCN2C3CCC2CC(C2c4ccccc4Oc4cc(-c5nnn[nH]5)ccc42)C3)cc1 (centres unmarked) [Compound 10j]         class 0
6  c1cncc(-c2ccc3c(c2)Oc2ccccc2C3C2CC3CCC(C2)N3)c1 (centres unmarked)         class 0

Please find the next compound below.
Could you please tell me whether Ki recorded for CC(=O)Nc1ccccc1-c1ccc2c(c1)Oc1c(O)cccc1C2C1CC2CCC(C1)N2Cc1ccccn1 (centres unmarked) is less than 90 nM?
class 1

###

biological target: delta opioid receptor (Rattus norvegicus, UniProt P33533); construct: from tissue; host or cells: forebrain of male Wistar rats (Charles River); experiment: Rat Brain Delta Opioid Receptor Binding Assay
The following ranges of Ki define the classes used here: category 1 (below 40 nM), category 2 (40 nM to below 200 nM), category 3 (200 nM or more)

For orientation, consider the following solved cases.
> print(dat)
                                   compound  assigned.class
1  CCN(CC)C(=O)c1ccc2c(c1)Oc1ccccc1C2C1CC2CCC(C1)N2C (stereo not shown) [Compound 17a]      category 3
2  CC(=O)Nc1ccccc1-c1ccc2c(c1)Oc1ccccc1C2C1CC2CCC(C1)N2Cc1ccoc1 (stereo not shown) [Compound 13b]      category 1
3  CC(=O)Nc1ccccc1-c1ccc2c(c1)Oc1c(O)cccc1C2C1CC2CCC(C1)N2Cc1ccoc1 (stereo not shown)      category 1

Band for CCN(CC)C(=N)c1ccc2c(c1)Oc1ccccc1C2C1CC2CCC(C1)N2Cc1ccccc1 (stereo not shown) ?
category 3

Another compound to look at: CC(=O)Nc1ccccc1-c1ccc2c(c1)Oc1ccccc1C2C1CC2CCC(C1)N2CCc1ccccc1 (stereo not shown) [Compound 17b]
category 2

Another compound to look at: CCN(CC)C(=N)c1ccc2c(c1)Oc1ccccc1C2C1CC2CCC(C1)N2Cc1ccoc1 (stereo not shown)
category 3

###

target: delta opioid receptor (Rattus norvegicus); construct: from tissue; host or cells: forebrain of male Wistar rats (Charles River); assay: Rat Brain Delta Opioid Receptor Binding Assay
measured-quantity: Ki (nM)
Numbers only, in nM.

Below is a list of compounds. For each, state its recorded Ki.
1. Oc1cccc2c1Oc1cc(-c3cccnc3)ccc1C2C1CC2CCC(C1)N2 (centres unmarked)
2. c1ccc(CN2C3CCC2CC(C2c4ccccc4Oc4cc(-c5cccnc5)ccc42)C3)cc1 (centres unmarked) [Compound 11b]
3. c1ccc2c(c1)Oc1cc(-c3ccncc3)ccc1C2C1CC2CCC(C1)N2Cc1ccoc1 (centres unmarked) [Compound 25b]
4. c1csc(CN2C3CCC2CC(C2c4ccccc4Oc4cc(-c5nnn[nH]5)ccc42)C3)c1 (centres unmarked)

1: 9.61; 2: 70.4; 3: 22.4; 4: 13.8

###

target: mu opioid receptor (Rattus norvegicus, UniProt P33535); construct: Following incubation with the mu selective peptide ligand, ˜0.8 nM [^3H]DAMGO; from tissue; host or cells: forebrain of male Wistar rats (Charles River); test: Rat Brain Mu Opioid Receptor Binding Assay
Exercise: for every item that follows, state its recorded Ki.
Answers are plain numbers, in nM.

Below is a list of molecules. For each, state its recorded Ki.
1. CC(=O)Nc1ccccc1-c1ccc2c(c1)Oc1ccccc1C2C1CC2CCC(C1)N2Cc1ccccn1 (centres unmarked) [Compound 15b]
2. c1ccc2c(c1)Oc1cc(-c3cnc4ccccc4c3)ccc1C2C1CC2CCC(C1)N2 (centres unmarked)

[947, 27700]

###

molecular target: delta opioid receptor (Rattus norvegicus, UniProt P33533); construct: from tissue; host or cells: forebrain of male Wistar rats (Charles River); experiment: Rat Brain Delta Opioid Receptor Binding Assay
measured-quantity: Ki (µM)
Numbers only, in µM.

> print(dat)
                                   compound  measured.quantity  experimental.value
1  c1ccc(CN2C3CCC2CC(C2c4ccccc4Oc4cc(-c5ccncc5)ccc42)C3)cc1 (stereo not shown) [Compound 23b]                 Ki              0.0997
2  c1cncc(-c2ccc3c(c2)Oc2ccccc2C3C2CC3CCC(C2)N3Cc2ncc[nH]2)c1 (stereo not shown) [Compound 26b]                 Ki               0.338
3  c1ccc2c(c1)Oc1cc(-c3nnn[nH]3)ccc1C2C1CC2CCC(C1)N2 (stereo not shown) [Compound 5j]                 Ki               0.477

Here is another compound to look at.
Would you mind telling me what Ki value was observed for COc1cccc2c1Oc1cc(Br)ccc1C2C1CC2CCC(C1)N2 (stereo not shown) [Compound 14k] ?
2.88

###

Exercise: for every item that follows, state its recorded pKi.
target: delta opioid receptor (Rattus norvegicus, UniProt P33533); construct: from tissue; host or cells: forebrain of male Wistar rats (Charles River); test: Rat Brain Delta Opioid Receptor Binding Assay
Answers are plain numbers, as −log10 of the molar value.

Examples with answers:
> print(dat)
                                   molecule  experimental.value
1  Oc1cccc2c1Oc1cc(-c3cccnc3)ccc1C2C1CC2CCC(C1)N2Cc1ccoc1 (centres unmarked)                7.30
2  O=c1[nH]c(-c2ccc3c(c2)Oc2ccccc2C3C2CCNCC2)no1 (centres unmarked)                5.89
3  CCN(CC)C(=N)c1ccc2c(c1)Oc1ccccc1C2C1CC2CCC(C1)N2 (centres unmarked)                6.68
4  CCN(CC)C(=N)c1ccc2c(c1)Oc1ccccc1C2C1CC2CCC(C1)N2Cc1cccs1 (centres unmarked)                6.79
5  c1ccc(CN2C3CCC2CC(C2c4ccccc4Oc4cc(-c5cccnc5)ccc42)C3)nc1 (centres unmarked) [Compound 10b]                6.68
6  c1ccc2c(c1)Oc1cc(-c3ccsc3)ccc1C2C1CC2CCC(C1)N2 (centres unmarked)                5.24
7  Oc1cccc2c1Oc1cc(-c3cccnc3)ccc1C2C1CC2CCC(C1)N2Cc1cccs1 (centres unmarked) [Compound 10k]                7.34
8  O=C(c1ccc2c(c1)Oc1ccccc1C2C1CC2CCC(C1)N2)N1CCC(O)C1 (centres unmarked)                5.92

Below is a list of molecules. For each, state its recorded pKi.
1. c1cncc(-c2ccc3c(c2)Oc2ccccc2C3C2CC3CCC(C2)N3Cc2ccoc2)c1 (centres unmarked)
2. CCN(CC)C(=O)c1ccc2c(c1)Oc1ccccc1C2C1CC2CCC(C1)N2Cc1ccco1 (centres unmarked) [Compound 13a]
3. c1cncc(-c2ccc3c(c2)Oc2ccccc2C3C2CC3CCC(C2)N3Cc2cccs2)c1 (centres unmarked)
4. c1ccc(CN2C3CCC2CC(C2c4ccccc4Oc4cc(-c5ccncc5)ccc42)C3)nc1 (centres unmarked) [Compound 22b]
5. CCN(CC)C(=O)c1ccc2c(c1)Oc1ccc(F)cc1C2C1CC2CCC(C1)N2 (centres unmarked)
6. O=C(c1ccc2c(c1)Oc1ccccc1C2C1CC2CCC(C1)N2)N1CCCC1 (centres unmarked)
7. c1csc(CN2C3CCC2CC(C2c4ccccc4Oc4cc(-c5ccncc5)ccc42)C3)c1 (centres unmarked) [Compound 21b]

1: 7.53; 2: 7.38; 3: 6.74; 4: 7.15; 5: 6.53; 6: 6.08; 7: 7.01

Below is a list of molecules. For each, state its recorded pKi.
1. Oc1cccc2c1Oc1cc(-c3cccnc3)ccc1C2C1CC2CCC(C1)N2CCc1ccccc1 (centres unmarked) [Compound 13k]
2. CC(=O)Nc1ccccc1-c1ccc2c(c1)Oc1c(O)cccc1C2C1CC2CCC(C1)N2CCc1ccccc1 (centres unmarked)
3. CCN(CC)C(=O)c1ccc2c(c1)Oc1c(C)cccc1C2C1CC2CCC(C1)N2 (centres unmarked)
4. CC(=O)Nc1ccccc1-c1ccc2c(c1)Oc1c(O)cccc1C2C1CC2CCC(C1)N2Cc1ncc[nH]1 (centres unmarked)
5. CCN(CC)C(=O)c1ccc2c(c1)Oc1c(O)cccc1C2C1CC2CCC(C1)N2Cc1ccoc1 (centres unmarked)

1. 6.55
2. 7.58
3. 7.14
4. 8.31
5. 9.14

Below is a list of molecules. For each, state its recorded pKi.
1. Oc1cccc2c1Oc1cc(-c3cccnc3)ccc1C2C1CC2CCC(C1)N2Cc1ccccc1 (centres unmarked) [Compound 12k]
2. c1ccc2c(c1)Oc1cc(-c3nnn[nH]3)ccc1C2C1CC2CCC(C1)N2Cc1ccoc1 (centres unmarked)

1: 7.40; 2: 7.69

Below is a list of molecules. For each, state its recorded pKi.
1. CCN(CC)C(=O)c1ccc2c(c1)Oc1c(O)cccc1C2C1CC2CCC(C1)N2 (centres unmarked)
2. c1ccc(CN2C3CCC2CC(C2c4ccccc4Oc4cc(-c5nnn[nH]5)ccc42)C3)nc1 (centres unmarked)
3. CCN(CC)C(=O)c1ccc2c(c1)Oc1ccccc1C2C1CC2CCC(C1)N2Cc1ccccc1 (centres unmarked) [Compound 11a]
4. CC(=O)Nc1ccccc1-c1ccc2c(c1)Oc1ccccc1C2C1CC2CCC(C1)N2Cc1cccs1 (centres unmarked) [Compound 14b]
5. c1ccc2c(c1)Oc1cc(-c3cnc4ccccc4c3)ccc1C2C1CC2CCC(C1)N2 (centres unmarked)
6. CCN(CC)C(=N)c1ccc2c(c1)Oc1ccccc1C2C1CC2CCC(C1)N2CCc1ccccc1 (centres unmarked)
7. c1ccc(CCN2C3CCC2CC(C2c4ccccc4Oc4cc(-c5ccncc5)ccc42)C3)cc1 (centres unmarked) [Compound 24b]
8. CCN(CC)C(=O)c1ccc2c(c1)Oc1ccccc1C2C1CC2CCC(C1)N2Cc1ncc[nH]1 (centres unmarked) [Compound 16a]

1. 8.89
2. 6.75
3. 7.70
4. 7.11
5. 5.31
6. 6.04
7. 5.80
8. 6.94

Would you mind telling me what pKi value was observed for CCN(CC)C(=O)c1ccc2c(c1)Oc1ccccc1C2C1CC2CCC(C1)N2 (centres unmarked) ?
6.85
